- Measurement Protocol: chemical genetic growth profiling, strain panel (AID 1159580);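 further: tested at 20 µM; growth read once vehicle control cultures reached saturation at 30 °C; 1 = growth at the plate median or of vehicle wells; lower values mean less growth of the strain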
- Particulars: S. cerevisiae deletion strains, growth OD, locus YDR162C, strain NBP2
In all, about 5,500 compounds went through this assay and about 2,000 (36%) were called active. About 18% were inconclusive and are not listed. No stated cut-off is given here; in the data, active means normalized growth mostly below about 0.91 (no sharp cut-off); inconclusive means no clear call, values can overlap the other calls; inactive means mostly above about 0.92. The list shows a part of the results.
I would appreciate it if you answered using one of these outcomes: active, inactive

Reference set, count: 3
NC(N)=NC(=O)c1nc(Cl)c(N)nc1N | inactive
O=c1c(O)c(-c2cc(O)c(O)c(O)c2)oc2cc(O)cc(O)c12 | inactive
C[C@]12CCC3c4ccc(O)cc4CCC3C1CC[C@@H]2O (stereo partly drawn) | inactive

Prompt: Can you look up the reported call for CC(C1OC(C)(C)C(O)C1O)[C@@H]1CC[C@]2(C)C3=CCC4C(C)(C)C(=O)CC[C@]4(C)C3CC[C@@]12C (stereo partly drawn) for me?
Response: inactive

Prompt: Can you look up the reported call for COc1ccc2ccc(=O)oc2c1 for me?
Response: inactive

Prompt: Can you look up the reported call for COc1ccc(-c2oc3c(CC=C(C)C)c(O[C@@H]4O[C@H](CO)[C@@H](O)[C@H](O)[C@H]4O)cc(O)c3c(=O)c2O[C@@H]2O[C@@H](C)[C@H](O)[C@@H](O)[C@H]2O)cc1 for me?
Response: inactive

Prompt: Can you look up the reported call for C[C@@H]([C@H](O)c1ccccc1)N(C)C for me?
Response: inactive

Prompt: Can you look up the reported call for NC(=O)CN1CCCC1=O for me?
Response: inactive

Prompt: Can you look up the reported call for COc1ccc2c3c1OC1C(O)CC=C4C(C2)N(C)CCC431 (stereo not drawn) for me?
Response: inactive

Prompt: Can you look up the reported call for CCCCOc1cc(C(=O)NCCN(CC)CC)c2ccccc2n1 for me?
Response: inactive

Prompt: Can you look up the reported call for COc1c2ccoc2cc2oc(=O)ccc12 for me?
Response: active

Prompt: Can you look up the reported call for COC(=O)c1c(C)cc(OC)cc1O for me?
Response: inactive

Prompt: Can you look up the reported call for C[C@@H]1CC[C@@]2(OC1)O[C@H]1CC3C4CC[C@H]5C[C@@H](O)CC[C@]5(C)C4CC[C@]3(C)[C@H]1[C@@H]2C (stereo partly drawn) for me?
Response: inactive

Prompt: Can you look up the reported call for CCOC(=O)c1c(C)cc(OC)cc1O for me?
Response: inactive

Prompt: Can you look up the reported call for CNC(=O)Oc1cccc2c1OC(C)(C)O2 for me?
Response: inactive

###

- Measurement Protocol: chemical genetic growth profiling, strain panel (AID 1159580)
- Particulars: S. cerevisiae deletion strains, growth OD, locus YPL241C, strain CIN2
In all, about 5,500 compounds went through this assay and about 2,000 (36%) were called active. About 18% were inconclusive and are not listed. No stated cut-off is given here; in the data, active means normalized growth mostly below about 0.91 (no sharp cut-off); inconclusive means no clear call, values can overlap the other calls; inactive means mostly above about 0.92. The list shows a part of the results.
I would appreciate it if you answered using one of these outcomes: active, inactive

Reference set, count: 3
CC(=O)OC1CN2CCC1CC2 (stereo not given) | inactive
O=c1c(O)c(-c2ccc(O)c(O)c2)oc2cc(O)cc(O)c12 | inactive
CC1(C)CCC(NC(=O)[C@@H](N)CCC(=O)O)CC1 | inactive

Please find the next compound below.
Prompt: Can you look up the reported call for COC(=O)CSc1ncnc2c(C)csc12 for me?
Response: inactive

###

- Measurement Protocol: chemical genetic growth profiling, strain panel (AID 1159580)
- Particulars: S. cerevisiae deletion strains, growth OD, locus YOR069W, strain VPS5, hits give low values
The whole screen tested about 5,500 compounds, of which about 2,000 (36%) were called active. Another 18% or so got no clear call; they are omitted. The list shows a part of the results.
Outcome Measure: normalized growth
Answers are plain numbers.

CC(C)(C)NCC(O)c1cc(O)cc(O)c1 (stereo unspecified) | 0.986
O=C(Cc1cccs1)NC1C(=O)N2C(C(=O)[O-])=C(C[n+]3ccccc3)CSC12 (stereo unspecified) | 1
COC(=O)C1OC(=O)C2OC23C1(C)CCC1C2(C)C(OC(C)=O)CC(OC(C)=O)C(C)(C)C2CC(=O)C13C (stereo unspecified) | 0.996

Could I get normalized growth for every one of these entries?
1. COc1c2ccoc2cc2oc(=O)ccc12
2. CC1O[C@@H](Oc2c(-c3ccc(O)c(O)c3)oc3cc(O)cc(O)c3c2=O)[C@H](O)[C@H](O)[C@H]1O (stereo partly specified)
3. COc1cc2occc2c2oc(=O)ccc12

Response:
0.852
1
0.984

###

- Measurement Protocol: chemical genetic growth profiling, strain panel (AID 1159580);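 further: tested at 20 µM; growth read once vehicle control cultures reached saturation at 30 °C; 1 = growth at the plate median or of vehicle wells; lower values mean less growth of the strain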
- Particulars: S. cerevisiae deletion strains, growth OD, locus YDR363W, strain ESC2, hits give low values
Out of some 5,500 compounds screened, about 2,000 (36%) were called active. About 18% were inconclusive and are not listed. This is one part of the list.
Outcome Measure: normalized growth
Answers are plain numbers.

Known normalized growth results, listed for orientation:
COc1cc(C(O)CO)ccc1OS(=O)(=O)O (centres undefined) | 0.994
O=C(Nc1ccccc1)c1cc([N+](=O)[O-])ccc1Cl | 0.967
N[C@@H](COP(=O)(O)O)C(=O)O | 1.01
Cc1ccc(S(=O)(=O)N[C@@H](CCCCN)C(=O)CCl)cc1 | 1.05
OC[C@H]1O[C@@H](n2cnc3c(N[C@H]4CC5CCC4C5)ncnc32)[C@H](O)[C@@H]1O (some centres undefined) | 1

Could I get normalized growth for every one of these entries?
1. CCCCCCCCCC(=O)NC(CN1CCOCC1)[C@H](O)c1ccccc1 (some centres undefined)
2. Cc1cn([C@H]2C=C[C@@H](CO)O2)c(=O)[nH]c1=O
3. CC1=NN=C(c2ccc(N)cc2)c2cc3c(cc2C1)OCO3
4. C[C@H](O)C(=O)C1=Nc2c(nc(N)[nH]c2=O)NC1
5. O=S(=O)(c1cccc2c(Cl)cccc12)N1CCCNCC1

Response:
0.942
0.976
0.986
0.952
1

Could I get normalized growth for every one of these entries?
1. CC(C)C[C@H](N)CSSC[C@@H](N)CC(C)C
2. CCCn1c(=O)c2[nH]c(C3CCCC3)nc2n(CCCOC(=O)c2ccc(S(=O)(=O)F)cc2)c1=O
3. COc1ccc(Cl)cc1C(=O)NCCc1ccc(S(=O)(=O)NC(=O)NC2CCCCC2)cc1
4. Cc1cccc(/C=C/c2ccccc2)n1
5. CN1C(C)(C)CCCC1(C)C
6. C1COC(NC(C2CC2)C2CC2)=N1
7. CCC1(O)CC2CN(CCc3c([nH]c4ccccc34)[C@@](C(=O)OC)(c3cc4c(cc3OC)N(C=O)C3[C@]45CCN4CC=C[C@@](CC)([C@@H](OC(C)=O)[C@]3(O)C(=O)OC)[C@H]45)C2)C1 (some centres undefined)

Response:
1. 1
2. 0.998
3. 0.968
4. 1.04
5. 0.997
6. 1.01
7. 0.986

Could I get normalized growth for every one of these entries?
1. S=C=Nc1cccc(C2(N3CCCCC3)CCCCC2)c1
2. O=S(=O)(c1cccc2c(I)cccc12)N1CCCNCC1
3. COc1cc(/C=C(\C#N)C(=O)c2ccc(O)c(O)c2)cc(I)c1O

Response:
1. 0.993
2. 0.958
3. 1.02

###

- Measurement Protocol: chemical genetic growth profiling, strain panel (AID 1159580);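 further: tested at 20 µM; growth read once vehicle control cultures reached saturation at 30 °C; 1 = growth at the plate median or of vehicle wells; lower values mean less growth of the strain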
- Particulars: S. cerevisiae deletion strains, growth OD, locus YKL203C, strain TOR2
About 2,000 (36%) of roughly 5,500 compounds were called active. Another 18% or so got no clear call; they are omitted. No stated cut-off is given here; in the data, active means normalized growth mostly below about 0.91 (no sharp cut-off); inconclusive means no clear call, values can overlap the other calls; inactive means mostly above about 0.92. Some of the results follow.
I would appreciate it if you answered using one of these outcomes: active, inactive

Reference set, count: 5
Cc1c(C)c(C)c(C(O)c2ccccc2)c(C)c1C (stereo unspecified) | inactive
Oc1c(Cl)cc(Cl)cc1C=Nc1ccc(Sc2ccccc2)nc1Sc1ccccc1 | inactive
O/N=C(/c1ccc(Cl)cc1)c1cc2ccccc2o1 | active
Oc1c(Br)cc(Br)cc1C=Nc1ccccn1 | active
CCOC(=O)N/N=C\c1cc(Cl)cc(Cl)c1O | inactive

Please find the next molecule below.
Prompt: Can you look up the reported call for COCCCNC(=S)N/N=C\c1cc(Br)ccc1O for me?
Response: inactive

###

Kindly state normalized growth for each of the entries shown.
- Measurement Protocol: chemical genetic growth profiling, strain panel (AID 1159580);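 further: tested at 20 µM; growth read once vehicle control cultures reached saturation at 30 °C; 1 = growth at the plate median or of vehicle wells; lower values mean less growth of the strain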
- Particulars: S. cerevisiae deletion strains, growth OD, strain wtn01, hits give low values
Out of some 5,500 compounds screened, about 2,000 (36%) were called active. Not shown: some 18% with an inconclusive outcome. The list shows a part of the results.
Numbers only.

Known normalized growth results, listed for orientation:
CNC(=O)Oc1cccc2c1OC(C)(C)O2 | 0.99
CC(=O)O[C@@H]1CC2C(C)(C)C(=O)C=C[C@]2(C)C2CC[C@@]3(C)[C@H](c4ccoc4)OC(=O)[C@H]4O[C@]43[C@@]21C (stereo partly specified) | 1.01

Could I get normalized growth for every one of these entries?
1. COC(=O)C1OC(=O)C2OC23C1(C)CCC1C2(C)C(OC(C)=O)CC(OC(C)=O)C(C)(C)C2CC(=O)C13C (stereo unspecified)
2. CC(C)[N+](C)(CCC(C(N)=O)(c1ccccc1)c1ccccc1)C(C)C

Response:
[0.997, 0.98]

Could I get normalized growth for every one of these entries?
1. NC(=NCCC[C@H](N)C(=O)O)N[N+](=O)[O-]
2. NC(=O)CN1CCCC1=O

Response:
1
1.01
